Would you kindly list melting point for each of these compounds?

Look at this compound and give its reported melting point. O=C1c2ccccc2C(=O)N1CC(=O)N1c2ccccc2N(Cc2ccc(NCc3ccccc3)cc2)C(=O)[C@H]2CCC[C@H]21 (relative stereo)
178 to 182 °C

Look at this compound and give its reported melting point. `CC(=O)NC[C@H]1CN(c2ccc(C(=O)c3ccc4ccc(C)cn34)cc2)C(=O)O1`
237 to 239 °C

Look at this compound and give its reported melting point. CCOc1ccc(-c2nc(-c3cccc(N4CCCC4C(=O)O)n3)cs2)cc1OCC (stereo not given)
170 to 171 °C

Look at this compound and give its reported melting point. `c1ccc2[nH]c(SSCCSSc3nc4ccccc4[nH]3)nc2c1`
190 to 192 °C

Look at this compound and give its reported melting point. `CCOC(=O)C(C)(C)Oc1ccc(CNc2ccccn2)cc1`
78 to 79 °C

Look at this compound and give its reported melting point. `Cn1cc(-c2cc3cccnc3[nH]2)c2cc(OCC(=O)O)ccc21`
> 300 °C

Look at this compound and give its reported melting point. `O=C1C(=O)N(CCl)c2ccccc21`
121 to 123 °C

Look at this compound and give its reported melting point. `FC(F)(F)c1ccc(-c2cc(Cl)ncn2)cc1`
227 to 230 °C

Look at this compound and give its reported melting point. `Cc1cc(OC(F)F)nc(NC(=O)NS(=O)(=O)c2ccccn2)n1`
150 to 151 °C

Look at this compound and give its reported melting point. O=C(Nc1nccs1)C(CC1CCCC1)c1cccc(C(F)(F)F)c1 (stereo not given)
134 to 136 °C

Look at this compound and give its reported melting point. `CNC(=O)NN=Cc1ncc([N+](=O)[O-])n1C`
221 to 223 °C

Look at this compound and give its reported melting point. `COC(=O)c1cc(-c2ccc(S(C)(=O)=O)cc2)n(-c2ccc(F)cc2)c1C`
154 to 155 °C

Look at this compound and give its reported melting point. Cc1c(C2CCC(Cc3ccccc3)(N(C)C)CC2)[nH]c2ccc(C(F)(F)F)cc12 (stereo not given)
166 to 174 °C

Look at this compound and give its reported melting point. O=C(O)C(Cc1ccccc1)Cn1ccnc1 (racemic)
159 to 163 °C

Look at this compound and give its reported melting point. `Cc1c(-c2ccc(O)cc2)sc(C=O)c1-c1ccc(O)c(Cl)c1`
234 to 236 °C

Look at this compound and give its reported melting point. `c1ccc(Cc2c[nH]c3ccccc23)cc1`
108 to 110 °C

Look at this compound and give its reported melting point. `CC(=O)Nc1nc2c(Oc3cc(-c4ccc(C(F)(F)F)cc4I)ncn3)cccc2s1`
242 to 243 °C

Look at this compound and give its reported melting point. `Cc1ccc(N2CCN(Cc3cnc(N)nc3N)CC2)cc1`
248 to 250 °C

Look at this compound and give its reported melting point. CN(C)C(=O)[C@@H]1C[C@H]1C(=O)c1c[nH]c2ccc(F)cc12 (relative stereo)
239 to 241 °C

Look at this compound and give its reported melting point. CCN1CCC2(c3cccc(OC)c3)Cc3[nH]c(C(=O)Nc4ccccc4)c(C)c3CC2C1 (stereo not given)
178 to 180 °C

----------
Would you kindly list melting point for each of these compounds?

Look at this compound and give its reported melting point. `CC(C)C[C@H](NC(=O)OC(C)(C)C)C(=O)N[C@@H](C(C)C)[C@@H](O)c1c(-c2ccc(F)cc2)c1=O`
90 to 96 °C

Look at this compound and give its reported melting point. `C[C@H]1CCCC(C)(C)[C@@H]1[C@H](O)c1ccc(C#N)c(F)c1`
114 to 116 °C

Look at this compound and give its reported melting point. `Clc1nn2cnnc2c2c1C1CCC2CC1`
137 to 140 °C

Look at this compound and give its reported melting point. `CC(C)C[C@H](NC(=O)c1ccc(Cl)cc1)C(=O)N[C@@H](C(C)C)[C@@H](O)c1c(-c2ccccc2)c1=O`
116 to 120 °C

Look at this compound and give its reported melting point. `c1cc(CC[C@H]2CNCCN2)co1`
112 to 114 °C
